This section presents binders with their documented OD450 nm values.
biological target: T1, biotinylated hBLyS-ECD (human, UniProt Q9Y275 134-285, biotinylated with Biotin-X-X-NHS (molar ratio 7:1); sites not stated); experiment: ELISA on captured biotinylated hBLyS-ECD; antibody 66.7 nM
T1 construct: also called biotinylated immunogen; biotinylated hBLvS-ECD
T1 sequence (Q9Y275 134-285): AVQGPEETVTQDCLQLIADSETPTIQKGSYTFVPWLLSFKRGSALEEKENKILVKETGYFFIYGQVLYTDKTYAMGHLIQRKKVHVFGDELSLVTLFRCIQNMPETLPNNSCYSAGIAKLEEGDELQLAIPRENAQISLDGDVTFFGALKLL

BINDER	OD450 nm (OD450 nm)
c67A2E1D10 (antibody, V domains shown) VH: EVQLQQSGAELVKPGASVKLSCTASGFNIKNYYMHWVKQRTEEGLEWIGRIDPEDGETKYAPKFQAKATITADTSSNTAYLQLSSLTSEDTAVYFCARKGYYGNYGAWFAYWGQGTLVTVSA VL: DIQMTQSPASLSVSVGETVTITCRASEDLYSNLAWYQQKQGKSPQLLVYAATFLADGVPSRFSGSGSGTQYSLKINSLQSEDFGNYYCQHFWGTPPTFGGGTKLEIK	3.19
c97A3C2H4 (antibody, V domains shown, also called chimeric antibody c97A3C2H4) VH: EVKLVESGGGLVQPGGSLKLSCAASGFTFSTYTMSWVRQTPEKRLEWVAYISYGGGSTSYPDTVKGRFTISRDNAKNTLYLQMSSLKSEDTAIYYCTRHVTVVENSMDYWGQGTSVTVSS VL: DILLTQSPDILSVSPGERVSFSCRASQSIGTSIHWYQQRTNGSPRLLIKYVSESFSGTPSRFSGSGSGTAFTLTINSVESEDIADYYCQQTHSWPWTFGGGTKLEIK	3.3
c8E7D9C7F5 (antibody, V domains shown, also called chimeric antibody c8E7D9C7F5) VH: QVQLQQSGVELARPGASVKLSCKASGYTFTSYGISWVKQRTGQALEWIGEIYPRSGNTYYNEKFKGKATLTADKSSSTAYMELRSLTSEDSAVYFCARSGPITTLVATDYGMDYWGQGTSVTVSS VL: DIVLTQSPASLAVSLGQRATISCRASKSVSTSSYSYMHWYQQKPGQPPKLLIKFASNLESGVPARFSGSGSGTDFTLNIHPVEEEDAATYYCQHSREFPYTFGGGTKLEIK	3.31
c111D10D6G3 (antibody, V domains shown) VH: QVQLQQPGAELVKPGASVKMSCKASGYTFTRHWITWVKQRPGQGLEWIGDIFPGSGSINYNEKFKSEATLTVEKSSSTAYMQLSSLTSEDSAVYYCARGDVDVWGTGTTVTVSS VL: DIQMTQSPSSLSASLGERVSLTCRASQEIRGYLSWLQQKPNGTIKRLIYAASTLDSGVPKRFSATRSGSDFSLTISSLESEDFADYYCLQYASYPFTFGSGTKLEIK	3.43
